The measured values listed here are drawn from PubChem BioAssay AID1963831.

test system: 889142-216-R-J1-PDC complex spheroid viability; assay: Anticancer human tumor 889142-216-R-J1-PDC patient-derived bladder carcinoma cell line growth inhibition [POLQ]; settings: second compound 0.0316 µM; first compound 0.316 µM; stronger effect = lower value;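 note: spheroids exposed to compounds for seven days; 100% = DMSO vehicle control viability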
Measured quantity: viability, T/C (%)
Supply the numeric figure in %, leaving out any unit text.

Which viability, T/C value belongs to O=c1[nH]cc(F)c(=O)[nH]1 + Cc1cccc(N(C)C(=O)C2C(O)CCN2c2nc(C)cc(C(F)(F)F)c2C#N)c1 ? 81.1

Next up: COc1ccc([C@@H](O)c2cc(-c3ncnc4cc(N5CCOCC5)ccc34)c(F)cc2Cl)nn1 + Nc1ccc(C#CCN(C(=O)Cc2ncc(C(F)(F)F)cc2C(F)(F)F)c2ccc(F)cc2)nn1 81.5

Next up: CCc1c2c(nc3ccc(O)cc13)-c1cc3c(c(=O)n1C2)COC(=O)[C@]3(O)CC + Cc1cccc(N(C)C(=O)C2C(O)CCN2c2nc(C)cc(C(F)(F)F)c2C#N)c1 35.8

Next up: CC1COCCN1c1cc(C2(S(C)(=N)=O)CC2)nc(-c2ccnc3[nH]ccc23)n1 (configuration not stated) + COC1C(OC(N)=O)C(O)C(Oc2ccc3c(O)c(NC(=O)c4ccc(O)c(CC=C(C)C)c4)c(=O)oc3c2C)OC1(C)C 71.5

Next up: COc1cccc2c1C(=O)c1c(O)c3c(c(O)c1C2=O)CC(O)(C(=O)CO)CC3OC1CC(N)C(O)C(C)O1 (configuration not stated) + Nc1ccc(C#CCN(C(=O)Cc2ncc(C(F)(F)F)cc2C(F)(F)F)c2ccc(F)cc2)nn1 52.2

Next up: C#Cc1c(F)ccc2cc(O)cc(-c3ncc4c(N5CC6CCC(C5)N6)nc(OCC56CCCN5CC(F)C6)nc4c3F)c12 (configuration not stated) + Nc1ccc(C#CCN(C(=O)Cc2ncc(C(F)(F)F)cc2C(F)(F)F)c2ccc(F)cc2)nn1 75

Next up: CNCc1ccc(-c2[nH]c3cc(F)cc4c3c2CCNC4=O)cc1 + COC1C(OC(N)=O)C(O)C(Oc2ccc3c(O)c(NC(=O)c4ccc(O)c(CC=C(C)C)c4)c(=O)oc3c2C)OC1(C)C 100
